Below, each entry is listed with its recorded melting point.

- molecule: "O=C(Nc1ccc2[nH]c(-c3ccc4cn[nH]c4c3)nc2c1)c1cc(N2CCOCC2)cc(C(F)(F)F)c1 [Compound 8d]"
  melting point: "195 to 196 °C"
- molecule: "CN1CCN(c2ccc(C(=O)Nc3ccc4[nH]c(-c5ccc6cn[nH]c6c5)nc4c3)cc2C(F)(F)F)CC1 [Compound 8e]"
  melting point: "160 to 161 °C"
- molecule: "CN1CCC[C@@H](Nc2cc(C(=O)Nc3ccc4[nH]c(-c5ccc6cn[nH]c6c5)nc4c3)cc(C(F)(F)F)c2)C1 [Compound 8v]"
  melting point: "213 to 214 °C"
- molecule: "Cc1cn(-c2cc(C(=O)Nc3ccc4[nH]c(-c5ccc6cn[nH]c6c5)nc4c3)cc(C(F)(F)F)c2)cn1 [Compound 8b]"
  melting point: "239 to 241 °C"
- molecule: "CCN1CCN(Cc2cc(C(=O)Nc3ccc4[nH]c(-c5ccc6cn[nH]c6c5)nc4c3)cc(C(F)(F)F)c2)CC1 [Compound 8r]"
  melting point: "265 to 267 °C"
- molecule: "CCN1CCC(Nc2cc(C(=O)Nc3ccc4[nH]c(-c5ccc6cn[nH]c6c5)nc4c3)cc(C(F)(F)F)c2)CC1 [Compound 8t]"
  melting point: "166 to 168 °C"
- molecule: "CN1CCC(Oc2ccc(C(=O)Nc3ccc4[nH]c(-c5ccc6cn[nH]c6c5)nc4c3)cc2C(F)(F)F)CC1 [Compound 8x]"
  melting point: "293 to 295 °C"
- molecule: "CN1CCC(Oc2cc(C(=O)Nc3ccc4[nH]c(-c5ccc6cn[nH]c6c5)nc4c3)cc(C(F)(F)F)c2)CC1 [Compound 8u]"
  melting point: "293 to 295 °C"
- molecule: "O=C(Nc1ccc2[nH]c(-c3ccc4cn[nH]c4c3)nc2c1)c1cnn(-c2ccccc2)c1C(F)(F)F [Compound 8g]"
  melting point: "258 to 260 °C"
- molecule: "O=C(Nc1ccc2[nH]c(-c3ccc4cn[nH]c4c3)nc2c1)c1cc(CN2CCN(C3CC3)CC2)cc(C(F)(F)F)c1 [Compound 8q]"
  melting point: "150 to 152 °C"
